# TARGET_DESC: recombinant human ATX beta isoform with N-terminal purification tag (human, UniProt Q13822 49-863)
# PROCEDURE_DETAILS: SPR Biacore 3000, His-ATX beta captured on anti-Penta-His, mAb as analyte, bivalent analyte model
READOUT: kon (M⁻¹ s⁻¹)
# value in M⁻¹ s⁻¹; strip the unit string

Reference set (2 entries):
>  <BINDER>
mAb ATXB3 (antibody, V domains shown, Human IgG1/kappa from Fab F17) VH: EVQLVQSGAEVKKPGESLKISCKGSGYSFTSYWIGWVRQMPGKGLEWMGIIYPGDSDTRYSPSFQGQVTISADKSISTAYLQWSSLKASDTAMYYCARPYGTFDYWGQGTLVTVSS VL: EIVLTQSPATLSLSPGERATLSCRASQSVADSLAWYQQKPGQAPRLLIYKASNRATGIPARFSGSGSGTDFTLTISSLEPEDFAVYYCQQSNGWPRTFGQGTKVEIK

>  <UNIT>
M⁻¹ s⁻¹

>  <kon>
212000

$$$$
>  <BINDER>
mAb ATXB13 (antibody, V domains shown, Human IgG1/kappa from Fab F143) VH: QVQLVQSGAEVKKPGSSVKVSCKASGGTFSSYAISWVRQAPGQGLEWMGGIIPIFGTANYAQKFQGRVTITADESTSTAYMELSSLRSEDTAVYYCARDFSVYGDFDYWGQGTLVTVSS VL: DIQMTQSPSSLSASVGDRVTITCRASQSIAKWLNWYQQKPGKAPKLLIYAASSLQSGVPSRFSGSGSGTDFTLTISSLQPEDFATYYCQQSYSTPLTFGQGTKVEIK

>  <UNIT>
M⁻¹ s⁻¹

>  <kon>
274000

$$$$

Alright, here's another binder for you.
For the binder shown here, mAb ATXB9 (antibody, V domains shown, Human IgG1/kappa from Fab F89) VH: QVQLVQSGAEVKKPGSSVKVSCKASGGTFSSYAISWVRQAPGQGLEWMGGISPYFGNANYAQKFQGRVTITADESTSTAYMELSSLRSEDTAVYYCARYGDFGGNVFTEFDYWGQGTLVTVSS VL: EIVLTQSPGTLSLSPGERATLSCRASQSVNNSDLAWYQQKPGQAPRLLIYTASSRATGIPDRFSGSGSGTDFTLTISRLEPEDFAVYYCQQATTVPLTFGQGTKVEIK , give the reported kon.
3370
